test method notes: superoxide lowering in aged yeast cells, pilot screen, validation compound set (AID 2706);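 further: yeast exposed to compound for one week at 30 degrees C before staining; 100% = mean of all compound wells on the same plate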
assay conditions: S. cerevisiae aging, superoxide DHE fluorescence; at 10 µM, stronger effect = lower value
Please provide measured superoxide response (% of plate) for the entries that follow.
Enter your answer as a number in %; do not include the unit.

Reported superoxide response (% of plate) for Cc1cc(C(=O)NC(CC(C)C)C(=O)O)cc(C)c1[N+](=O)[O-] (stereo not given) was 96.9

Reported superoxide response (% of plate) for COc1ccc(-c2[nH]ncc2C=O)cc1OC was 93.7

Reported superoxide response (% of plate) for CC(=O)OCC(=O)C1=CCC2C3CCC4=CC(=O)C=CC4(C)C3(F)C(OC(C)=O)CC12C (stereo not given) was 87.6

Reported superoxide response (% of plate) for Nc1cccc2nc3ccccc3cc12 was 113

Reported superoxide response (% of plate) for O=C(Nc1ccccc1)c1ccccc1CCc1ccccc1 was 90.9

Reported superoxide response (% of plate) for O=C(c1ccc(O)cc1)c1ccc(O)cc1O was 95.7

Reported superoxide response (% of plate) for CCCNC(=O)NS(=O)(=O)c1ccc(Cl)cc1 was 99.1

Reported superoxide response (% of plate) for CC(=O)O[C@H]1CSC[C@H]1NC(=O)c1ccccc1 was 104

Reported superoxide response (% of plate) for COc1ccc(C2C3C(C)=NN=C3CC(C)(O)C2C(C)=O)cc1 (stereo not given) was 103

Reported superoxide response (% of plate) for COc1ccc(-c2nc(C)c(C(C)=O)n2O)cc1OC was 97.4

Reported superoxide response (% of plate) for Cc1ccc(C(=O)N2CC3(C(C)C)CN(C(=O)c4ccc(C)cc4)CC(C(C)C)(C2)C3=O)cc1 was 97.1

Reported superoxide response (% of plate) for COc1cc(NC(=O)N[C@@H](Cc2ccccc2)C(=O)O)cc(OC)c1 was 106

Reported superoxide response (% of plate) for CCCCNC(=O)NS(=O)(=O)c1ccc(C)cc1 was 108

Reported superoxide response (% of plate) for CC(=O)OCC(=O)[C@@]12OC(C)(C)O[C@@H]1C[C@H]1[C@@H]3C[C@H](F)C4=CC(=O)C=C[C@]4(C)[C@@]3(F)[C@@H](O)C[C@@]12C was 94.7

Reported superoxide response (% of plate) for C=C(C)COc1ccc(-c2nc(N)ncc2-c2ccc(OC)cc2)c(O)c1 was 111

Reported superoxide response (% of plate) for CC(=O)O[C@]1(C(C)=O)CC[C@H]2[C@@H]3C=C(Cl)C4=CC(=O)CC[C@]4(C)[C@H]3CC[C@@]21C was 108

Reported superoxide response (% of plate) for CN(C)CCCNc1ncnc2c1cnn2-c1ccccc1 was 94.4

Reported superoxide response (% of plate) for CC(NCCC(c1ccccc1)c1ccccc1)c1ccccc1 (stereo not given) was 95.5

Reported superoxide response (% of plate) for Cc1ccc2c(CN3CCN(Cc4ccc5c(c4)OCO5)CC3)cc(=O)oc2c1C was 87.4

Reported superoxide response (% of plate) for COc1ccc(C2CNC(=O)C2)cc1OC1CCCC1 (stereo not given) was 104

---

Please provide measured binding (% of control) for the entries that follow.
Test system: anti-desmoglein-3 scFv antibody binding to human DSG3
test method notes: inhibitors of anti-DSG3 scFv binding to DSG3, pilot screen, biochemical, validation compound set, bead-based, flow cytometry (AID 588368);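 further: signal is the median channel fluorescence of bead-bound GFP antibody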
assay conditions: Protein G beads, DSG3-Fc, scFv-GFP binding, at 10 µM, stronger effect = lower value
Enter your answer as a number in %; do not include the unit.

Reported binding (% of control) for COc1ccc(CC(=O)c2c(O)cc(O)cc2O)cc1OC was 100

Reported binding (% of control) for O=c1ccc2ccccc2o1 was 103

Reported binding (% of control) for O=C(Nc1ccc(Oc2c(F)c(F)c(F)c(F)c2F)cc1)OC1CCN2Cc3ccccc3N=C12 (configuration not stated) was 98.8

Reported binding (% of control) for Cc1nc2ccccc2c(=O)n1N was 106

Reported binding (% of control) for CCOC(=O)c1cc2cc3ccccc3cc2[nH]1 was 99.1

Reported binding (% of control) for CC1(C)C2CCC1(C)C(OCC[N+](C)(C)CC(=O)OC1CCCCC1)C2 (configuration not stated) was 109

Reported binding (% of control) for Cc1ncc([N+](=O)[O-])n1CC(C)O (configuration not stated) was 100

---

test method notes: LAP4-GFP expression modulators in yeast, confirmation, cell-based, cherry picks, flow cytometry, mother/daughter gates (AID 2271);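 further: ratio of sample to DMSO plate mean so 100% equals DMSO level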
assay conditions: S. cerevisiae LAP4-GFP strain, 3 h, measured here: mother cell gate response, at 10 µM, stronger effect = higher value, 100 means same as DMSO control
measured endpoint: GFP response relative to DMSO (%)
Enter your answer as a number in %; do not include the unit.

Reported GFP response relative to DMSO for CC(Oc1cccc(Cl)c1)C(=O)Nc1nc(-c2ccccn2)cs1 (stereo unspecified) was 167

Reported GFP response relative to DMSO for CNC(=O)/C(C#N)=C/c1c(N(Cc2ccccc2)Cc2ccccc2)nc2c(C)cccn2c1=O was 93.1

Reported GFP response relative to DMSO for Cc1cc(O)c(C(=O)/C=C/c2ccccc2Br)c(=O)o1 was 144

Reported GFP response relative to DMSO for COc1ccc(OCC(O)CNC(=O)/C=C/c2cccc([N+](=O)[O-])c2)cc1 (stereo unspecified) was 104

Reported GFP response relative to DMSO for Cc1cc(O)c(C(=O)/C=C/c2ccccc2O)c(=O)o1 was 125

Reported GFP response relative to DMSO for CCOC(=O)C1=C(Cc2ccc(F)cc2)C(=O)c2ccccc2C1=O was 104

---

test method notes: modulators of CIT2-GFP expression in yeast, confirmation, S. cerevisiae, GFP fusion, cherry picks, mother/daughter gates (AID 2274)
assay conditions: S. cerevisiae CIT2-GFP strain, flow cytometry, 3 h; at 10 µM; stronger effect = higher value
measured endpoint: GFP response, % of DMSO (%)
Enter your answer as a number in %; do not include the unit.

Reported GFP response, % of DMSO for COc1ccc(-c2noc(-c3cccc(Cl)c3)n2)cc1OC was 99.3

Reported GFP response, % of DMSO for CC1CN(c2nc3ccccn3c(=O)c2/C=C(\C#N)C(=O)N2CCOCC2)CC(C)O1 (centres undefined) was 100

Reported GFP response, % of DMSO for CCC(=O)Nc1ccc(NC(=O)c2cc3ccccc3o2)cc1 was 97.3

Reported GFP response, % of DMSO for COCc1cc(=O)[nH]c(SCCS(=O)(=O)c2ccc(Cl)cc2Cl)n1 was 119

Reported GFP response, % of DMSO for CN1CCSc2ccc(C(=O)Nc3cccc(F)c3)cc21 was 92.1

Reported GFP response, % of DMSO for COc1ccc(C(=O)/C=C2/C(=O)Nc3ccccc32)c(OC)c1 was 82.2

Reported GFP response, % of DMSO for O=C(c1c(F)cccc1F)N1CCN(c2ccccc2F)CC1 was 107

Reported GFP response, % of DMSO for Nc1nc(SCC(=O)Nc2cc(C(F)(F)F)ccc2N2CCOCC2)n[nH]1 was 99.7

Reported GFP response, % of DMSO for COc1cc(NC(=O)c2cccs2)ccc1NC(=O)c1cc2ccccc2o1 was 101

Reported GFP response, % of DMSO for O=C1c2ccsc2SCCN1Cc1ccc(Cl)cc1 was 82.2

Reported GFP response, % of DMSO for O=C(CSc1nnc(C2COc3ccccc3O2)o1)N1CCCC1 (centres undefined) was 112

Reported GFP response, % of DMSO for Cc1nnc(N2C(=O)c3cccc4cccc(c34)C2=O)s1 was 101

Reported GFP response, % of DMSO for COc1ccc(-c2csc(N(CC(C)C)C(=O)c3ccco3)n2)cc1 was 98.6

Reported GFP response, % of DMSO for COc1ccc(-c2nc3cccc(C)n3c2NCc2ccco2)cc1OC was 97.2

---

Please provide measured GFP response relative to DMSO for the entries that follow.
test method notes: LAP4-GFP expression modulators in yeast, confirmation, cell-based, cherry picks, flow cytometry, mother/daughter gates (AID 2271);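 further: ratio of sample to DMSO plate mean so 100% equals DMSO level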
assay conditions: S. cerevisiae LAP4-GFP strain, 3 h, at 10 µM, stronger effect = higher value, 100 means same as DMSO control
Enter your answer as a number in %; do not include the unit.

Reported GFP response relative to DMSO for CNc1cc(CSC)nc(SCc2ccc(Cl)cc2Cl)n1 was 125

Reported GFP response relative to DMSO for O=C(/C=C/c1ccccc1)Nc1ncn[nH]1 was 135

Reported GFP response relative to DMSO for Cc1cccc(CS(=O)(=O)c2ncc(Cl)c(C(=O)Nc3nnc(C(C)C)s3)n2)c1 was 106

Reported GFP response relative to DMSO for Cc1cccc(Sc2ccc([N+](=O)[O-])cc2[N+](=O)[O-])n1 was 97.4

Reported GFP response relative to DMSO for Cc1ccc(C(C(=O)NC2CCCCC2)N(CCCN2CCOCC2)C(=O)c2snc(C(N)=O)c2N)cc1 (stereo not given) was 105

Reported GFP response relative to DMSO for Cc1ccc(S(=O)(=O)c2ccc([N+](=O)[O-])cn2)cc1 was 185

Reported GFP response relative to DMSO for O=C(O)C1CCN(S(=O)(=O)c2ccc(Oc3ccccc3)cc2)CC1 was 97.7

Reported GFP response relative to DMSO for O=[N+]([O-])c1ccc(Sc2ccc(Cl)c(Cl)c2)nc1 was 98.9

Reported GFP response relative to DMSO for CC[n+]1cc(C)ccc1/C=C/c1ccc(N(C)C)cc1 was 134

Reported GFP response relative to DMSO for Cc1ccc(NS(=O)(=O)c2ccc(CCC(=O)N3CCOCC3)cc2)cc1 was 95.4

Reported GFP response relative to DMSO for CCCn1c(=O)c(C(=O)Nc2ccccc2C(=O)OCC)c(O)c2ccccc21 was 95.3

Reported GFP response relative to DMSO for O=C1/C(=C/c2ccccn2)COc2ccccc21 was 135

Reported GFP response relative to DMSO for COc1cc(C2CC(c3cccnc3)=NN2c2ccc(F)cc2)cc(OC)c1OC (stereo not given) was 95.3

Reported GFP response relative to DMSO for O=[N+]([O-])/C=C/c1cn(Cc2ccccc2)c2ccccc12 was 134

Reported GFP response relative to DMSO for Cc1cc2ccccn2c1C(=O)c1ccc([N+](=O)[O-])o1 was 195

Data credit: PubChem BioAssay
